Here, each record is paired with measured Fold of changes in relative LHPP mRNA expression level (log2) data.
# System: LHPP gene
# EXPERIMENT: High-throughput screening of saRNAs targeting LHPP promoter: LHPP mRNA by one-step RT-qPCR in Huh7 cells
# Type: cell-based, human
# CONDITION_LABEL: 10 nM saRNA, 72 hours, relative to control (Mock)
d = 2'-deoxy (DNA); r = 2'-OH (RNA)
OBSERVED_PROPERTY: Fold of changes in relative LHPP mRNA expression level (log2)

substance="RAG7-821: saRNA duplex; sense ACUCCUCCCUUUUAAUAUCTT (SEQ ID NO: 89), antisense GAUAUUAAAAGGGAGGAGUTT (SEQ ID NO: 253) (sugars from the 5' end r19 d2, backbone not given here)" test_result=0.32
substance="RAG7-736: saRNA duplex; sense UGGGUUUAACGCAUUGUGATT (SEQ ID NO: 131), antisense UCACAAUGCGUUAAACCCATT (SEQ ID NO: 295) (sugars from the 5' end r19 d2, backbone not given here)" test_result=0.22
substance="RAG7-884: saRNA duplex; sense CAGAAGUAAAGUGUUCUCGTT (SEQ ID NO: 101), antisense CGAGAACACUUUACUUCUGTT (SEQ ID NO: 265) (sugars from the 5' end r19 d2, backbone not given here)" test_result=0.28
substance="RAG7-883: saRNA duplex; sense AGAAGUAAAGUGUUCUCGUTT (SEQ ID NO: 161), antisense ACGAGAACACUUUACUUCUTT (SEQ ID NO: 325) (sugars from the 5' end r19 d2, backbone not given here)" test_result=0.14
substance="RAG7-684: saRNA duplex; sense CAUCCUCAUCUAUGCAGGGTT (SEQ ID NO: 47), antisense CCCUGCAUAGAUGAGGAUGTT (SEQ ID NO: 211) (sugars from the 5' end r19 d2, backbone not given here)" test_result=0.47
substance="RAG7-698: saRNA duplex; sense GCCCAGGUCCUAUGCAUCCTT (SEQ ID NO: 118), antisense GGAUGCAUAGGACCUGGGCTT (SEQ ID NO: 282) (sugars from the 5' end r19 d2, backbone not given here)" test_result=0.24
substance="RAG7-890: saRNA duplex; sense UUGGACCAGAAGUAAAGUGTT (SEQ ID NO: 76), antisense CACUUUACUUCUGGUCCAATT (SEQ ID NO: 240) (sugars from the 5' end r19 d2, backbone not given here)" test_result=0.36
substance="RAG7-119: saRNA duplex; sense GAUCUCCUGGGAAGAAAGCTT (SEQ ID NO: 57), antisense GCUUUCUUCCCAGGAGAUCTT (SEQ ID NO: 221) (sugars from the 5' end r19 d2, backbone not given here)" test_result=0.43

###

# Test system: LHPP gene
# EXPERIMENT: High-throughput screening of saRNAs targeting LHPP promoter: LHPP mRNA by one-step RT-qPCR in Huh7 cells
# Type: cell-based, human
# CONDITION_LABEL: 10 nM saRNA, 72 hours, relative to control (Mock)
d = 2'-deoxy (DNA); r = 2'-OH (RNA)
OBSERVED_PROPERTY: Fold of changes in relative LHPP mRNA expression level (log2)

substance="RAG7-885: saRNA duplex; sense CCAGAAGUAAAGUGUUCUCTT (SEQ ID NO: 147), antisense GAGAACACUUUACUUCUGGTT (SEQ ID NO: 311) (sugars from the 5' end r19 d2, backbone not given here)" system_under_test="LHPP gene" unit_symbol=log2 test_result=0.18
substance="RAG7-147: saRNA duplex; sense UUUCUGCUUUUCCUGCUCUTT (SEQ ID NO: 66), antisense AGAGCAGGAAAAGCAGAAATT (SEQ ID NO: 230) (sugars from the 5' end r19 d2, backbone not given here)" system_under_test="LHPP gene" unit_symbol=log2 test_result=0.39
substance="RAG7-190: saRNA duplex; sense CCUUCUUGUCUCAAUUUGCTT (SEQ ID NO: 130), antisense GCAAAUUGAGACAAGAAGGTT (SEQ ID NO: 294) (sugars from the 5' end r19 d2, backbone not given here)" system_under_test="LHPP gene" unit_symbol=log2 test_result=0.22
substance="RAG7-134: saRNA duplex; sense UGCUCUUUGUCCGCUGAUCTT (SEQ ID NO: 75), antisense GAUCAGCGGACAAAGAGCATT (SEQ ID NO: 239) (sugars from the 5' end r19 d2, backbone not given here)" system_under_test="LHPP gene" unit_symbol=log2 test_result=0.36
substance="RAG7-896: saRNA duplex; sense GCUAUGUUGGACCAGAAGUTT (SEQ ID NO: 69), antisense ACUUCUGGUCCAACAUAGCTT (SEQ ID NO: 233) (sugars from the 5' end r19 d2, backbone not given here)" system_under_test="LHPP gene" unit_symbol=log2 test_result=0.38
substance="RAG7-917: saRNA duplex; sense UCUCUUCUUUGAAAGCUCATT (SEQ ID NO: 64), antisense UGAGCUUUCAAAGAAGAGATT (SEQ ID NO: 228) (sugars from the 5' end r19 d2, backbone not given here)" system_under_test="LHPP gene" unit_symbol=log2 test_result=0.40
substance="RAG7-143: saRNA duplex; sense UGCUUUUCCUGCUCUUUGUTT (SEQ ID NO: 102), antisense ACAAAGAGCAGGAAAAGCATT (SEQ ID NO: 266) (sugars from the 5' end r19 d2, backbone not given here)" system_under_test="LHPP gene" unit_symbol=log2 test_result=0.28
substance="RAG7-35: saRNA duplex; sense GGUUUGCACCCGGUCUUCUTT (SEQ ID NO: 24), antisense AGAAGACCGGGUGCAAACCTT (SEQ ID NO: 188) (sugars from the 5' end r19 d2, backbone not given here)" system_under_test="LHPP gene" unit_symbol=log2 test_result=0.61

###

# Tested on: LHPP gene
# EXPERIMENT: High-throughput screening of saRNAs targeting LHPP promoter: LHPP mRNA by one-step RT-qPCR in Huh7 cells
# Assay type: cell-based, human
# CONDITION_LABEL: 10 nM saRNA, 72 hours, relative to control (Mock)
d = 2'-deoxy (DNA); r = 2'-OH (RNA)
Reported Fold of changes in relative LHPP mRNA expression level (log2) by item:
OBSERVED_PROPERTY: Fold of changes in relative LHPP mRNA expression level (log2)

substance="RAG7-125: saRNA duplex; sense UCCGCUGAUCUCCUGGGAATT (SEQ ID NO: 55), antisense UUCCCAGGAGAUCAGCGGATT (SEQ ID NO: 219) (sugars from the 5' end r19 d2, backbone not given here)" system_under_test="LHPP gene" test_result="0.44 log2"
substance="RAG7-702: saRNA duplex; sense CUCAGCCCAGGUCCUAUGCTT (SEQ ID NO: 140), antisense GCAUAGGACCUGGGCUGAGTT (SEQ ID NO: 304) (sugars from the 5' end r19 d2, backbone not given here)" system_under_test="LHPP gene" test_result="0.19 log2"
substance="RAG7-722: saRNA duplex; sense UGUGAUAGUCCCGUUUUCUTT (SEQ ID NO: 135), antisense AGAAAACGGGACUAUCACATT (SEQ ID NO: 299) (sugars from the 5' end r19 d2, backbone not given here)" system_under_test="LHPP gene" test_result="0.21 log2"
substance="RAG7-195: saRNA duplex; sense AGGUGCCUUCUUGUCUCAATT (SEQ ID NO: 28), antisense UUGAGACAAGAAGGCACCUTT (SEQ ID NO: 192) (sugars from the 5' end r19 d2, backbone not given here)" system_under_test="LHPP gene" test_result="0.59 log2"

###

# Tested on: LHPP gene
# EXPERIMENT: High-throughput screening of saRNAs targeting LHPP promoter: LHPP mRNA by one-step RT-qPCR in Huh7 cells
# Type: cell-based, human
# CONDITION_LABEL: 10 nM saRNA, 72 hours, relative to control (Mock)
d = 2'-deoxy (DNA); r = 2'-OH (RNA)
OBSERVED_PROPERTY: Fold of changes in relative LHPP mRNA expression level (fold)

substance="RAG7-844: saRNA duplex; sense GGUUCCGAGGGGCCAUUGATT (SEQ ID NO: 129), antisense UCAAUGGCCCCUCGGAACCTT (SEQ ID NO: 293) (sugars from the 5' end r19 d2, backbone not given here)" test_result=1.17
substance="RAG7-96: saRNA duplex; sense GAAAAGGACACCGUUUCAGTT (SEQ ID NO: 105), antisense CUGAAACGGUGUCCUUUUCTT (SEQ ID NO: 269) (sugars from the 5' end r19 d2, backbone not given here)" test_result=1.21
